System: SK-MEL-5 melanoma
Assay: NCI tumour cell line growth inhibition, 48 h; in the data active = GI50 below about 0.43 µM; inactive = the rest
Could you please pick one outcome from this set? active, inactive

>>> label("O=C(O)CSc1cc(NS(=O)(=O)c2ccc(Br)cc2)c2ccccc2c1O")
"inactive"

# input Any idea what this test logged for `COc1ccc([C@@H]2[C@@H](Oc3ccccc3)C(=O)N2c2cc(OC)c(OC)c(OC)c2)cc1F` ?
# output active

# input Hey, what did the test say about `Cc1cccc(Oc2ccc(Nc3ncnc4ccc(NC(=O)CN(C)C)cc34)cc2Cl)c1` ?
# output inactive

# input Field: outcome | Entry: `CC[C@]12C=CCN3CC[C@@]4(c5ccc(OC)cc5N(C)[C@H]4[C@@](O)(C(=O)OC)[C@@H]1OC(=O)CCCN1CCN(CCCC(=O)O[C@@H]4[C@]5(CC)C=CCN6CC[C@@]7(c8ccc(OC)cc8N(C)[C@H]7[C@@]4(O)C(=O)OC)[C@@H]65)CC1)[C@@H]32`
# output inactive

* * *

Listing of recorded TGI by entry.
Test system: SK-MEL-2 melanoma
Experiment: NCI tumour cell line growth inhibition, 48 h

>>> result("COC(=O)C(C)NP(=O)(OCc1cccc(Cn2cnc3c(N)ncnc32)c1)Oc1ccccc1 (stereo not given)")
"> 100 µM"

Data point: `COc1cc2c3c(n(CCCN)c(=O)c2cc1OC)-c1ccc(N)cc1C3=O` ; TGI = 29.8 µM

Memo: Cc1ccccc1NC(=O)C1C(=O)N(c2ccccc2C)C(=O)/C1=N\NC(N)=O (stereo not given) , reported TGI: > 100 µM

Just so you know, measured TGI for `CC(=O)n1c2ccc(Br)cc2c2nc3ccccc3nc21` came out at > 100 µM

According to the records, this molecule `COc1cc(CCN)c(OC)c(OC)c1` displays TGI of > 100 µM

Lab note: O=C1CSC(c2cc3cc(Br)ccc3nc2Cl)N1c1ccc(Cl)cc1 (stereo not given) gave TGI of 32.2 µM

Notebook: `CC(C)=CCC[C@@H](C)C1=C(N)C(O)=C(C)C(=O)C1=O` , TGI read as > 75 µM

For reference, reported TGI for `CNS(=O)(=O)Nc1nccc(Cc2c(C)c3ccc(Oc4ncccn4)cc3oc2=O)c1F` stands at > 100 µM

The reported value for `OCc1ccc(N2CCc3ccc(F)cc3C2)cc1Cl` in terms of TGI is 8.79 µM

Input `C/C(=C\c1csc(C)n1)[C@@H]1C[C@@H]2O[C@]2(C)CCC[C@H](C)[C@H](O)[C@@H](C)C(=O)C(C)(C)[C@@H](O)CC(=O)N1` . Output TGI: < 1e-05 µM

* * *

TGI listing for selected compounds.
Test system: HL-60(TB) leukemia
Experiment: NCI tumour cell line growth inhibition, 48 h
Just the number in µM, nothing appended.

Reported TGI ( `O=C(O)c1ccccc1/C=C1\Cc2cc3c(cc2C1=O)CCC3` ) = 27.1

So, CCCCCCCCCCCCOC1C(C(COC2OC(C(O)CO)C3OC(C)(C)OC23)OC(=O)Nc2ccccc2)OC2OC(C)(C)OC21 (stereo not drawn) ? Its TGI was 1.6

Value of measured TGI for the entry O=C(OC1OC2COC(=O)c3cc(O)c(O)c(O)c3-c3c(cc(O)c(O)c3O)C(=O)OC3C2OC(=O)[C@@]24CC(=O)[C@@](O)(OC25C(=O)O[C@H]2[C@@H](O)CO[C@@]25O)C2(O)Oc5c(O)c(O)cc(c5C24)C(=O)OC13)c1cc(O)c(O)c(O)c1 (stereo partly drawn) : 92.3

The reported TGI of the compound CC(C)CCCC(C)C1CCC2C3CC([N+](=O)[O-])=C4CC(O)CCC4(C)C3CCC12C (stereo not drawn) was 60.6

The compound `Cn1cc(-c2ccc3c(c2)ncn3-c2cc(NS(=O)(=O)C3CC3)cc(-c3ccc(F)cc3F)c2)cn1` showed TGI equal to 45.4
